System: ZR-75-1 breast cancer cell line
PROTOCOL_DESCRIPTION: Growth inhibition by lapatinib (Cell Titer-Glo)
Type: cell-based
CONDITIONS: Homo sapiens, 72 hours culture, read-out: IC50
PROPERTY: IC50

Input: Data request, read-out IC50, for `CS(=O)(=O)CCNCc1ccc(-c2ccc3ncnc(Nc4ccc(OCc5cccc(F)c5)c(Cl)c4)c3c2)o1`
Output: > 10 µM

---

Tested on: MDA-MB-468 breast cancer cell line
PROTOCOL_DESCRIPTION: Growth inhibition by lapatinib (Cell Titer-Glo)
Type: cell-based
CONDITIONS: Homo sapiens, 72 hours culture, read-out: IC50
Procedure: The sensitivity of cell lines to EGFR/HER2 inhibitor was examined by culturing breast cancer cell lines shown in Table 3 in the presence of EGFR/HER2 inhibitor and examining growth inhibition effects on the cell lines. The breast cancer cell lines shown in Table 3 were seeded in a 96 well assay plate (#3917: Costar) at 4,000 cells/well, and cultured at 37° C. […]
PROPERTY: pIC50
Quick note: pIC50 means taking -log10 of the concentration in moles per liter.

Input: Recorded pIC50 of `CS(=O)(=O)CCNCc1ccc(-c2ccc3ncnc(Nc4ccc(OCc5cccc(F)c5)c(Cl)c4)c3c2)o1` , please.
Output: 5.42

---

System: UACC-812 breast cancer cell line
PROTOCOL_DESCRIPTION: Growth inhibition by lapatinib (Cell Titer-Glo)
Format: cell-based
CONDITIONS: Homo sapiens, 72 hours culture, read-out: IC50
PROPERTY: pIC50
Note: pIC50 values are expressed as the negative base-10 logarithm of concentration in M.

Input: Entry `CS(=O)(=O)CCNCc1ccc(-c2ccc3ncnc(Nc4ccc(OCc5cccc(F)c5)c(Cl)c4)c3c2)o1` : reported pIC50 = ?
Output: 6.31

---

Test system: HCC1954 breast cancer cell line
PROTOCOL_DESCRIPTION: Growth inhibition by lapatinib (Cell Titer-Glo)
Assay type: cell-based
CONDITIONS: Homo sapiens, 72 hours culture, read-out: IC50
PROPERTY: IC50 (µM)
Give your result in µM as a bare value.

Input: Value lookup for IC50; key = `CS(=O)(=O)CCNCc1ccc(-c2ccc3ncnc(Nc4ccc(OCc5cccc(F)c5)c(Cl)c4)c3c2)o1`
Output: 1.47

---

Tested on: HCC1937 breast cancer cell line
PROTOCOL_DESCRIPTION: Growth inhibition by lapatinib (Cell Titer-Glo)
Type: cell-based
CONDITIONS: Homo sapiens, read-out: Reference example 1 Sensitivity to lapatinib
PROPERTY: IC50

Input: # IC50 lookup, item `CS(=O)(=O)CCNCc1ccc(-c2ccc3ncnc(Nc4ccc(OCc5cccc(F)c5)c(Cl)c4)c3c2)o1`
Output: ≥ 1 µM

---

System: BT-20 breast cancer cell line
PROTOCOL_DESCRIPTION: Growth inhibition by lapatinib (Cell Titer-Glo)
Format: cell-based
CONDITIONS: Homo sapiens, read-out: Reference example 1 Sensitivity to lapatinib
PROPERTY: IC50

Input: Item: `CS(=O)(=O)CCNCc1ccc(-c2ccc3ncnc(Nc4ccc(OCc5cccc(F)c5)c(Cl)c4)c3c2)o1` Test system: BT-20 breast cancer cell line Read-out: IC50 Value: ?
Output: ≥ 1000 nM

---

Tested on: tyrosine kinase in cell membrane fraction of HCC1806
PROTOCOL_DESCRIPTION: Tyrosine kinase activity inhibition rate in cell membrane fraction (Poly-Glu4-Tyr substrate)
Format: biochemical
CONDITIONS: 25 μM kinase inhibitor, 25 μM ATP
PROPERTY: Inhibition rate (%)
Respond numerically; units are % and should not be typed.

These solved cases illustrate the format of a correct answer.
MOLECULE | ASSAY_TARGET | UNIT | Inhibition rate
CN1CCC(Nc2ncc3ncnc(Nc4ccc(F)c(Cl)c4)c3n2)CC1 [Inhibitor 2] | tyrosine kinase in cell membrane fraction of HCC1806 | % | 29.6
Cc1cc(F)c(Nc2ncnc3cc(OCc4ccccc4)ccc23)cc1O.Cl [Inhibitor 8] | tyrosine kinase in cell membrane fraction of HCC1806 | % | 6.4
COc1cc2ncnc(Nc3cccc(Cl)c3)c2cc1OC [Inhibitor 1] | tyrosine kinase in cell membrane fraction of HCC1806 | % | 57.9

Here is the next item to consider.
Input: Which Inhibition rate reading was recorded for the molecule Cc1[nH]c(/C=C2\C(=O)Nc3ccc(S(=O)(=O)N(C)c4cccc(Cl)c4)cc32)c(C)c1C(=O)N1CCN(C)CC1 [Inhibitor 9] ?
Output: 77.3

---

Tested on: tyrosine kinase in cell membrane fraction of UACC893
PROTOCOL_DESCRIPTION: Tyrosine kinase activity inhibition rate in cell membrane fraction (Poly-Glu4-Tyr substrate)
Assay type: biochemical
CONDITIONS: UACC893; 25 μM kinase inhibitor, 25 μM ATP
Reported Inhibition rate values are given for each entry in this list.
Please reply with the bare figure in % and do not write the unit itself.

Sample records with Inhibition rate:
MOLECULE | ASSAY_TARGET | Inhibition rate [%]
COc1cc2ncnc(Nc3cccc(Cl)c3)c2cc1OC [Inhibitor 1] | tyrosine kinase in cell membrane fraction of UACC893 | 21.2
CN1CCC(Nc2ncc3ncnc(Nc4ccc(F)c(Cl)c4)c3n2)CC1 [Inhibitor 2] | tyrosine kinase in cell membrane fraction of UACC893 | 4.1

Now look at this entry.
Input: Please look up its Inhibition rate: CN(C)c1cc2c(Nc3ccc4c(cnn4Cc4ccccc4)c3)ncnc2cn1 [Inhibitor 4]
Output: −3.1
